I'd be grateful if you could share measured IC50 for these entries.
tested on: phosphorylation of eIF4E at ser209 in MV4.11 cell line; test: MNK cellular activity phospho-eIF4E detection assay (Alphascreen Surefire); format: cell-based; details: Homo sapiens; MV4.11 cell line, phospho-eIF4E (ser209) Alphascreen Surefire; read-out: P(IC50) elF4E (converted)
One number for each entry, in nM.

Some solved entries appear below for comparison.
- Molecule: "CC(C)Oc1cc(F)ccc1Nc1ncnc2sc(C(=O)NC3CC4CCC(C3)N4)nc12 (stereo not drawn) [Example 5]"
  Study system: "phosphorylation of eIF4E at ser209 in MV4.11 cell line"
  IC50 / nM: 100
- Molecule: "O=C(NC1CCOCC1)c1nc2c(N3CC4(CC4)c4cc(F)ccc43)ncnc2s1 [Example 107]"
  Study system: "phosphorylation of eIF4E at ser209 in MV4.11 cell line"
  IC50 / nM: 2
- Molecule: "CCOc1cc(F)ccc1Nc1ncnc2sc(C(=O)NCCCN(C)C)nc12 [Example 24]"
  Study system: "phosphorylation of eIF4E at ser209 in MV4.11 cell line"
  IC50 / nM: 79.4
- Molecule: "CN(C)CCCNC(=O)c1nc2c(Nc3ccc(F)cc3O[C@H]3CCCC[C@@H]3O)ncnc2s1 [Example 19]"
  Study system: "phosphorylation of eIF4E at ser209 in MV4.11 cell line"
  IC50 / nM: 251
- Molecule: "COCCCNC(=O)c1nc2c(N3CC(CCN)c4ccccc43)ncnc2s1 (stereo not drawn) [Example 166]"
  Study system: "phosphorylation of eIF4E at ser209 in MV4.11 cell line"
  IC50 / nM: 3.98
- Molecule: "CN(C)CCC1CN(c2ncnc3sc(C(=O)NC4CCOCC4)nc23)c2ccc(F)cc21 (stereo not drawn) [Example 148]"
  Study system: "phosphorylation of eIF4E at ser209 in MV4.11 cell line"
  IC50 / nM: 63.1
- Molecule: "Cc1ccc2c(c1)CCN2c1ncnc2sc(C(=O)NCC3CCNCC3)nc12 [Example 170]"
  Study system: "phosphorylation of eIF4E at ser209 in MV4.11 cell line"
  IC50 / nM: 79.4
- Molecule: "CC(C)Oc1ncccc1Nc1ncnc2sc(C(=O)NCC3CCNCC3)nc12 [Example 55]"
  Study system: "phosphorylation of eIF4E at ser209 in MV4.11 cell line"
  IC50 / nM: 316
- Molecule: "O=C(NCC1CCNCC1)c1nc2c(N3CC(CCO)c4ccccc43)ncnc2s1 (stereo not drawn) [Example 136]"
  Study system: "phosphorylation of eIF4E at ser209 in MV4.11 cell line"
  IC50 / nM: 6.31
- Molecule: "O=C(Nc1nc2c(N3CCc4cc(F)ccc43)ncnc2s1)C1CCOC1 (stereo not drawn) [Example 84]"
  Study system: "phosphorylation of eIF4E at ser209 in MV4.11 cell line"
  IC50 / nM: 50.1

# batch: return IC50 for each of the 2 molecules below
1. N#Cc1ccc2c(c1)CCN2c1ncnc2sc(C(=O)NC3CCOCC3)nc12 [Example 42]
2. O=C(NC1COC1)c1nc2c(N3CCc4cc(F)ccc43)ncnc2s1 [Example 76]

Solution:
1: 31.6; 2: 7.94

For each of the items listed, what is its IC50?
1. O=C(NC1CCOCC1)c1nc2c(N3CCc4ncccc43)ncnc2s1 [Example 44]
2. CN(C)CCCNc1nc2c(N3CCc4cc(F)ccc43)ncnc2s1 [Example 85]
3. CC(C)Oc1cc(F)ccc1Nc1ncnc2sc(C(=O)NCCC3CCN(C)CC3)nc12 [Example 37]

Solution:
[100, 100, 25.1]
